test system: Mus musculus; test: Antithrombotic activity in mouse when administered a dose of 20 mg/kg perorally; assay type: functional; conditions: route oral
measurement kind: Protection (%)
Respond numerically; units are % and should not be typed.

The recorded Protection for CC(Cl)C(=O)Nc1ccc2c(c1)CCC1CC(=O)NN=C21 (centres undefined) is 33

The recorded Protection for `Oc1cc2c(nn1)-c1ccccc1CC2` is 33

The recorded Protection for Nc1ccc2c(c1)CCCC1CC(=O)NN=C21 (centres undefined) is 45

The recorded Protection for O=C1CC2CCc3ccccc3C2=NN1 (centres undefined) is 59

The recorded Protection for Nc1ccc2c(c1)CCC1CC(=O)NN=C21 (centres undefined) is 73

The recorded Protection for `CC(=O)Oc1ccccc1C(=O)O` is 44

The recorded Protection for CC(=O)Nc1ccc2c(c1)CCCC1CC(=O)NN=C21 (centres undefined) is 46

The recorded Protection for CC(=O)Nc1ccc2c(c1)C1=NNC(=O)CC1CC2 (centres undefined) is 25

The recorded Protection for `CC(=O)Nc1ccc2c(c1)CCc1cc(O)nnc1-2` is 55

----------
organism: Cavia porcellus; assay: In vitro inhibitory activity of thrombin (0.625 IU/mL)-induced platelet aggregation in guinea pig platelet rich plasma after 4 min; assay type: functional
measurement kind: Inhibition
Please answer in the form of a number followed by its unit of measurement.

The recorded Inhibition for CC(=O)Nc1ccc2c(c1)CCC1CC(=O)NN=C21 (stereo in doubt; (-)-3c) is 63%

The recorded Inhibition for `CC(=O)Nc1ccc2c(c1)CCc1cc(O)nnc1-2` is 86%

The recorded Inhibition for O=C1CC2CCc3ccccc3C2=NN1 (stereo not drawn) is 97%

The recorded Inhibition for CC(=O)Nc1ccc2c(c1)CCC1CC(=O)NN=C21 (racemic) is 66%

The recorded Inhibition for `CC(=O)Oc1ccccc1C(=O)O` is 0%

The recorded Inhibition for CC(=O)Nc1ccc2c(c1)C1=NNC(=O)CC1CC2 (stereo not drawn) is 14%

The recorded Inhibition for CC(=O)Nc1ccc2c(c1)CCC1CC(=O)NN=C21 (single isomer, unassigned; (+)) is 100%

The recorded Inhibition for Nc1ccc2c(c1)CCC1CC(=O)NN=C21 (stereo not drawn) is 27%

----------
assay: Lethal dose in mouse by administering compound intraperitoneally; type: toxicity, organism-based; settings: in vivo, ip
measurement kind: LD50 (mg/kg)
Respond numerically; units are mg/kg and should not be typed.

The recorded LD50 for Nc1ccc2c(c1)CCC1CC(=O)NN=C21 (configuration not stated) is 611

The recorded LD50 for `Oc1cc2c(nn1)-c1ccccc1CC2` is 707

The recorded LD50 for Nc1ccc2c(c1)CCCC1CC(=O)NN=C21 (configuration not stated) is 483

The recorded LD50 for CC(=O)Nc1cccc2c1CCC1CC(=O)NN=C21 (configuration not stated) is 378

The recorded LD50 for `CC(=O)Nc1ccc2c(c1)CCc1cc(O)nnc1-2` is 651

The reported numbers originate from ChEMBL document CHEMBL1124348.
